experiment: Aqueous solubility of compound at pH 7.4 by HPLC analysis; type: physicochemical
ATTRIBUTE_MEASURED: solubility (µM)
Write the answer as a number in µM, unit excluded.

>>> recorded_measurement("CCNc1nc(C)cc(N2CCC3(CCN(C(=O)c4cc(Cl)cc(Cl)c4)C3)C2)n1 (stereo not given)")
98

Problem: Can you share its solubility? I mean this compound: `CCNc1cc(C)nc(N2CCC3(CC2)CC(=O)c2ccccc2O3)n1`
Result: 100

Problem: Can you check `CCNc1nc(C)cc(N2CCN(C(=O)c3ccc(Cl)c(C(F)(F)F)c3)CC2)n1` next?
Result: 101

Problem: And `CCNc1cc(C)nc(N2CC3CCC(C2)N3C(=O)c2cc(Cl)cc(Cl)c2)n1` ?
Result: 97

Problem: Similarly, `CCNc1nc(C)cc(N2CCC3(CC2)CC(=O)c2ccccc2O3)n1` ?
Result: 98
